# merged literature set: IC50 with MTP (Homo sapiens)
The response must be a number in nM with no trailing unit.

Name the recorded IC50 of `CCOC(=O)[C@H](C)NC(=O)[C@@]1(c2ccccc2)CC[C@H](C(=O)N2CCC(NC(=O)c3cccn(C)c3=O)CC2)c2ccccc21` , assay system MTP (Homo sapiens).
1340

Name the recorded IC50 of `CC(C)c1ccc(-c2c(C(=O)Nc3ccc(N4CCN(Cc5cccc(C#N)c5)CC4)nc3)cccc2C(C)C)cc1` , assay system MTP (Homo sapiens).
0.16

Name the recorded IC50 of `CCOC(=O)NCCCC[C@@H](NC(=O)[C@@]1(c2ccccc2)CC[C@H](C(=O)N2CCC(NC(=O)c3cccn(C)c3=O)CC2)c2ccccc21)C(=O)OCC` , assay system MTP (Homo sapiens).
643

Name the recorded IC50 of `CCOC(=O)[C@]1(c2ccccc2)CC[C@@H](C(=O)NCCNC(=O)c2ccccc2)c2ccccc21` , assay system MTP (Homo sapiens).
1250

Name the recorded IC50 of `CCOc1ncccc1C(=O)NC1CCN(C(=O)[C@@H]2CC[C@](C(=O)OC)(c3ccccc3)c3ccccc32)CC1` , assay system MTP (Homo sapiens).
5.68

Name the recorded IC50 of `Cn1cccc(C(=O)NC2CCN(C(=O)[C@H]3CC[C@@](C(=O)NCCC(=O)OC(C)(C)C)(c4ccccc4)c4ccccc43)CC2)c1=O` , assay system MTP (Homo sapiens).
65.2
